SUBJECT_OF_TEST: T1, Extracellular domain (ECD) of the canine IL-4 receptor alpha-V5 epitope-AviTag-His Tag (canine)
T1 construct: monomeric form isolated by size exclusion; also called canine IL-4RA-V5-Avi-His; canine IL-4RA
T1 chain: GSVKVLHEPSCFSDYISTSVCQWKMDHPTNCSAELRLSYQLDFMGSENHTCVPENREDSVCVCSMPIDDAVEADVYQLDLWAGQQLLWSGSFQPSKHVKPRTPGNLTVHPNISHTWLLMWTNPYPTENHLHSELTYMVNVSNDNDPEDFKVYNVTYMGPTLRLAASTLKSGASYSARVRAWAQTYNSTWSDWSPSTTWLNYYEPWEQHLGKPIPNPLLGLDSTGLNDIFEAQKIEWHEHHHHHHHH
ASSAY_DETAILS: SPR, Fab-SASA captured on BSA;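 further: biacore T200 SPR, Fab-SASA variants from E. coli conditioned medium captured on BSA-coated CM5 chip, canine IL-4RA injected 120 s then 420 s dissociation, 1:1 model fit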
Threshold check on koff: at or above 0.001 s⁻¹ gives fulfilled, strictly below gives not fulfilled.

Record excerpt, results attached:
BINDER: TB640_005 Fab-SASA VH-L50M (Fab, V domains shown, not shown: SASA tag then His-tag) VH: EVQLVESGGDLVKPGGSLRLSCVASGFTFRDYAMTWVRQAPGKGLQWVSMISGSGGKTYYADAVKGRFTISRDNAKNTLYLQMNSLRAEDTAVYYCAVDRLTKTIRPQYYGLWVWGQGTLVTVSS VL: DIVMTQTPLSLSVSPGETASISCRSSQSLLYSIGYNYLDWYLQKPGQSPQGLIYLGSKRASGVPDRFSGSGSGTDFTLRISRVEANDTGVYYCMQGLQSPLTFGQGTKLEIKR
LABEL_CLASS: fulfilled

BINDER: TB640_005 Fab-SASA VL-S57T (Fab, V domains shown, not shown: SASA tag then His-tag) VH: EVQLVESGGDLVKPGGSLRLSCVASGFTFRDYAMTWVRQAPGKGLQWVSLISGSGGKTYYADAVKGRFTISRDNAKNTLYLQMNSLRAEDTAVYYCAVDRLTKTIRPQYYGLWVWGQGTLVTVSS VL: DIVMTQTPLSLSVSPGETASISCRSSQSLLYSIGYNYLDWYLQKPGQSPQGLIYLGTKRASGVPDRFSGSGSGTDFTLRISRVEANDTGVYYCMQGLQSPLTFGQGTKLEIKR
LABEL_CLASS: fulfilled

BINDER: TB640_005 Fab-SASA VL-T102N (Fab, V domains shown, not shown: SASA tag then His-tag) VH: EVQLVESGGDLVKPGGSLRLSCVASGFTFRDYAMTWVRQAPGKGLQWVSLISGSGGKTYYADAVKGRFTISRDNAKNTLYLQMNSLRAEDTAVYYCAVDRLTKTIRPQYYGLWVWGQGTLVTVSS VL: DIVMTQTPLSLSVSPGETASISCRSSQSLLYSIGYNYLDWYLQKPGQSPQGLIYLGSKRASGVPDRFSGSGSGTDFTLRISRVEANDTGVYYCMQGLQSPLNFGQGTKLEIKR
LABEL_CLASS: not fulfilled

Consider the record given below.
Query :: Assess whether reported koff for TB640_005 Fab-SASA VH-T28P (Fab, V domains shown, not shown: SASA tag then His-tag) VH: EVQLVESGGDLVKPGGSLRLSCVASGFPFRDYAMTWVRQAPGKGLQWVSLISGSGGKTYYADAVKGRFTISRDNAKNTLYLQMNSLRAEDTAVYYCAVDRLTKTIRPQYYGLWVWGQGTLVTVSS VL: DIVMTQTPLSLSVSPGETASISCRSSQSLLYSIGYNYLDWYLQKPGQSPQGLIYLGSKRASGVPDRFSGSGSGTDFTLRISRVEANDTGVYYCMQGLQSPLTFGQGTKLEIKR sits at 0.001 s⁻¹ or higher.
Result :: not fulfilled
